- assay.method.text: Conversion rate of substrate compound A by E. coli expressing each engineered protein (HPLC, oxygenase activity)
- Assay type: biochemical
- assay.setup: Reaction condition 1: bacteria cultured overnight, substrate compound A and IPTG added to react overnight
- Experimental: The high-throughput bacterial protein expression was achieved by cloning the synthesized gene that encodes each engineered protein into a bacterial expression vector with a C-terminal histidine tag (His-tag). […] The supernatant of reaction solution was pipetted into a 96-well plate and the absorbance at 510 nm from 4-aminoantipyrine and potassium ferricyanide was measured by an endpoint colorimetric method to detect phenol products. […]
# Conversion rate annotations
Output spec: scalar in %, unitless text.

For the molecule shown here, SEQ ID NO: 58: RdpA mutant L82H + V187L + F182W + R104G + R180M (protein) MHAALSPLSQRFERIAVQPLTGVLGAEITGVDLREPLDDSTWNEILDAFHTYQVIYFPGQAITNEQHIAFSRRFGPVDPVPHLKSIEGYPEVQMIRREANESGGVIGDDWHTDSTFLDAPPAAVVMRAIDVPEHGGDTGFLSMYTAWETLSPTMQATIEGLNVVHSATRVFGSLYQAQNMRWSNTSLKVMDVDAGDRETVHPLVVTHPGSGRKGLYVNQVYCQRIEGMTDAESKPLLQFLYEHATRFDFTCRVRWKKDQVLVWDNLCTMHRAVPDYAGKFRYLTRTTVGGVRPAR , give the reported Conversion rate.
90

For the molecule shown here, SEQ ID NO: 26 (protein) MHAALSPLSQRFERIAVQPLTGVLGAEITGVDLREPLDDSTWNEILDAFHTYQVIYFPGQAITNEQHIAFSRRFGPVDPVPHLKSIEGYPEVQMIRREANESGLVIGDDWHTDSTFLDAPPAAVVMRAIDVPEHGGDTGFLSMYTAWETLSPTMQATIEGLNVVHSATRVFGSLYQAQNRRFSNTSLKVMDVDAGDRETVHPLVVTHPGSGRKGLYVNQVYCQRIEGMTDAESKPLLQFLYEHATRFDFTCRVRWKKDQVLVWDNLCTMHRAVPDYAGKFRYLTRTTVGGVRPAR , give the reported Conversion rate.
96.8

For the molecule shown here, SEQ ID NO: 18 (protein) MHAALSPLSQRFERIAVQPLTGVLGAEITGVDLREPLDDSTWNEILDAFHTYQVIYFPGQAITNEQHIAFSRRFGPVDPVPHLKSIEGYPEVQMIRREANESGAVIGDDWHTDSTFLDAPPAAVVMRAIDVPEHGGDTGFLSMYTAWETLSPTMQATIEGLNVVHSATRVFGSLYQAQNRRFSNTSLKVMDVDAGDRETVHPLVVTHPGSGRKGLYVNQVYCQRIEGMTDAESKPLLQFLYEHATRFDFTCRVRWKKDQVLVWDNLCTMHRAVPDYAGKFRYLTRTTVGGVRPAR , give the reported Conversion rate.
92.1

For the molecule shown here, SEQ ID NO: 10 (protein) MHAALSPLSQRFERIAVQPLTGVLGAEITGVDLREPLDDSTWNEILDAFHTYQVIYFPGQAITNEQHIAFSRRFGPVDPVPHLKSIEGYPEVQMIRREANESGRVIGDDWHTDSTFLDAPPAAVVMRAIDVPEHGGDTGFLSMYTAWETLSPTMQATIEGLNVVHSATRVFGSLYQAQNRRFSNTSMKVMDVDAGDRETVHPLVVTHPGSGRKGLYVNQVYCQRIEGMTDAESKPLLQFLYEHATRFDFTCRVRWKKDQVLVWDNLCTMHRAVPDYAGKFRYLTRTTVGGVRPAR , give the reported Conversion rate.
94.1

For the molecule shown here, SEQ ID NO: 14 (protein) MHAALSPLSQRFERIAVQPLTGVLGAEITGVDLREPLDDSTWNEILDAFHTYQVIYFPGQAITNEQHIAFSRRFGPVDPVPHLKSIEGYPEVQMIRREANESGRVIGDDWHTDSTFLDAPPAAVVMRAIDVPEHGGDTGFLSMYTAWETLSPTMQATIEGLNVVHSATRVFGSLYQAQNRRFSNTSIKVMDVDAGDRETVHPLVVTHPGSGRKGLYVNQVYCQRIEGMTDAESKPLLQFLYEHATRFDFTCRVRWKKDQVLVWDNLCTMHRAVPDYAGKFRYLTRTTVGGVRPAR , give the reported Conversion rate.
76.8

For the molecule shown here, SEQ ID NO: 46: RdpA mutant L82H + V187L + F182W + R104G + T112S (protein) MHAALSPLSQRFERIAVQPLTGVLGAEITGVDLREPLDDSTWNEILDAFHTYQVIYFPGQAITNEQHIAFSRRFGPVDPVPHLKSIEGYPEVQMIRREANESGGVIGDDWHSDSTFLDAPPAAVVMRAIDVPEHGGDTGFLSMYTAWETLSPTMQATIEGLNVVHSATRVFGSLYQAQNRRWSNTSLKVMDVDAGDRETVHPLVVTHPGSGRKGLYVNQVYCQRIEGMTDAESKPLLQFLYEHATRFDFTCRVRWKKDQVLVWDNLCTMHRAVPDYAGKFRYLTRTTVGGVRPAR , give the reported Conversion rate.
97

For the molecule shown here, SEQ ID NO: 66 (protein) MHAALSPLSQRFERIAVQPLTGVLGAEITGVDLREPLDDSTWNEILDAFHTYQVIYFPGQAITNEQHIAFSRRFGPVDPVPHLKSIEGYPEVQMIRREANESGGVIGDEWHTDSTFLDAPPAAVVMRAIDVPEHGGDTGFLSMYTAWETLSPTMQATIEGLNVVHSATRVFGSLYQAQNRRWSNTSLKVMDVDAGDRETVHPLVVTHPGSGRKGLYVNQVYCQRIEGMTDAESKPLLQFLYEHATRFDFTCRVRWKKDQVLVWDNLCTMHRAVPDYAGKFRYLTRTTVGGVRPAR , give the reported Conversion rate.
94

Continuing:
For the molecule shown here, SEQ ID NO: 30 (protein) MHAALSPLSQRFERIAVQPLTGVLGAEITGVDLREPLDDSTWNEILDAFHTYQVIYFPGQAITNEQHIAFSRRFGPVDPVPHLKSIEGYPEVQMIRREANESGRVIGDDWHTDSTFLDAPPAAVVMRAIDVPEHGGDTGFLSMYTAWETLSPTMQATIEGLNVVHSATRVFGSLYQAQNRRWSNTSLKVMDVDAGDRETVHPLVVTHPGSGRKGLYVNQVYCQRIEGMTDAESKPLLQFLYEHATRFDFTCRVRWKKDQVLVWDNLCTMHRAVPDYAGKFRYLTRTTVGGVRPAR , give the reported Conversion rate.
96.5
